abundance fitness: recorded values
B1: Far upstream element-binding protein 3, residues 75 to 150; numbered along this chain, Q96I24 (parent)
chain: RTVITEEFKVPDKMVGFIIGRGGEQISRIQAESGCKIQIASESSGIPERPCVLTGTPESIEQAKRLLGQIVDRCRN

# Variants of: B1
# assayProcedure: abundance fitness (aPCA) (normalised: wild type 0, dead -1); higher = more abundant; growth selection in yeast, the domain comes from the species named
# experimentalConditions: Homo sapiens

Examples with answers:
>>> readoutvalue("F8L")
-0.097
>>> readoutvalue("I26R")
-0.251
>>> readoutvalue("A40W")
-0.1

Field abundance fitness (entry "I4S" ) reads -0.141

Field abundance fitness (entry "I4A" ) reads -0.122

Field abundance fitness (entry "M14F" ) reads -0.127

Field abundance fitness (entry "R65G" ) reads -0.053

Field abundance fitness (entry "K36M" ) reads -0.066

Field abundance fitness (entry "C74W" ) reads -0.022

Field abundance fitness (entry "G34R" ) reads -0.079
